Biological target: Proteasome chymotrypsin-like activity (S26 protein from RPMI8226 cells) (Homo sapiens, UniProt P28074)
Sequence (P28074 60-263 limits assumed): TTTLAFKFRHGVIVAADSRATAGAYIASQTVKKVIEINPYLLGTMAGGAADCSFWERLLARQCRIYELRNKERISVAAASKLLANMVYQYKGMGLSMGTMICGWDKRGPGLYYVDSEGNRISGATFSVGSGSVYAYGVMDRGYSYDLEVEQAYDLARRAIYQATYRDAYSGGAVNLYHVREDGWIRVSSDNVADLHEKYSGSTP
measured-endpoint: IC50

[[record]]
compound = "N#Cc1cccc(C(=O)NCC2=NOC(Cc3ccccc3)(C(=O)N[C@@H](Cc3ccccc3)B(O)O)C2)c1 (stereo partly drawn) [Example 317]"
data_value = "< 10 nM"

[[record]]
compound = "Cc1ncc(C(=O)NCC2=NOC(Cc3ccccc3)(C(=O)N[C@@H](CC(C)C)B(O)O)C2)s1 (stereo partly drawn) [Example 235]"
data_value = "< 10 nM"

[[record]]
compound = "CC(C)C[C@H](NC(=O)[C@]1(C(C)C)CC(c2nccc3ccccc23)=NO1)B(O)O [Example 13]"
data_value = "> 1000 nM"

[[record]]
compound = "Cc1cccc(CC2(C(=O)N[C@@H](CC(C)C)B(O)O)CC(CNC(=O)c3cccn4ccnc34)=NO2)c1 (stereo partly drawn) [Example 238]"
data_value = "< 10 nM"

[[record]]
compound = "CC(C)C[C@H](NC(=O)C1ON=C(CNC(=O)c2nccc3ccccc23)C1C)B(O)O (stereo partly drawn) [Example 65]"
data_value = "< 250 nM"


Lab note: measured IC50 of CC(C)C[C@H](NC(=O)C1(Cc2cscn2)CC(CNC(=O)c2cccn3ccnc23)=NO1)B(O)O (stereo partly drawn) [Example 150] was < 10 nM

Lab note: measured IC50 of CC(C)C[C@H](NC(=O)C1(Cc2cccc(Cl)c2)CC(CNC(=O)c2ccnn2C(C)C)=NO1)B(O)O (stereo partly drawn) [Example 250] was < 10 nM

Lab note: measured IC50 of CC(C)C[C@H](NC(=O)C1(Cc2ccccc2)CC(CN(C)C(=O)c2nccc3ccccc23)=NO1)B(O)O (stereo partly drawn) [Example 99] was < 25 nM

Lab note: measured IC50 of CC(C)C[C@H](NC(=O)C1CC(CNC(=O)c2cccc3ncccc23)=NO1)B(O)O (stereo partly drawn) [Example 62] was < 25 nM

Lab note: measured IC50 of CC(C)C[C@H](NC(=O)C1CC(CNC(=O)c2cnccn2)=NO1)B(O)O (stereo partly drawn) [Example 83] was < 250 nM

---

Entries and their IC50
Biological target: Proteasome chymotrypsin-like activity (S26 protein from RPMI8226 cells) (Homo sapiens, UniProt P28074)
Format: biochemical
Conditions: S26 protein from RPMI8226 cell extract 2 ug/well, substrate 20 uM, 37° C., 90 minutes; read-out: Proteasome chymotrypsin-like activity inhibition IC50

Before answering, review these 6 worked examples.
[[record]]
compound = "Cc1cc(C(=O)NCC2=NOC(Cc3ccccc3)(C(=O)N[C@@H](CC(C)C)B(O)O)C2)n(-c2ccccn2)n1 (stereo partly shown)"
measured_endpoint = "IC50"
data_value = "< 10 nM"

[[record]]
compound = "O=C(N[C@@H](Cc1ccccc1)B(O)O)C1(Cc2ccccc2)CC(COCc2cccc(Cl)c2)=NO1 (stereo partly shown)"
measured_endpoint = "IC50"
data_value = "< 25 nM"

[[record]]
compound = "Cc1cccc(CC2(C(=O)N[C@@H](CC(C)C)B(O)O)CC(CNC(=O)c3nccc4ccccc34)=NO2)c1 (stereo partly shown)"
measured_endpoint = "IC50"
data_value = "< 10 nM"

[[record]]
compound = "CC(C)C[C@H](NC(=O)C1(Cc2ccccc2)CC(CNC(=O)c2cccc3c2cnn3C)=NO1)B(O)O (stereo partly shown)"
measured_endpoint = "IC50"
data_value = "< 10 nM"

[[record]]
compound = "CC(C)C[C@H](NC(=O)C1(Cc2ccccc2)CC(CNC(=O)c2ccc(-c3ccccc3)cc2)=NO1)B(O)O (stereo partly shown)"
measured_endpoint = "IC50"
data_value = "< 10 nM"

[[record]]
compound = "Cc1cccc(C(=O)NCC2=NOC(Cc3ccccc3)(C(=O)N[C@@H](CC(C)C)B(O)O)C2)c1 (stereo partly shown)"
measured_endpoint = "IC50"
data_value = "< 10 nM"


Lab note: measured IC50 of CC[C@H](NC(=O)C1(Cc2ccccc2)CC(CNC(=O)c2cccn3ccnc23)=NO1)B(O)O (stereo partly shown) was < 25 nM
